# Assay protocol: Plasma pharmacokinetics and liver distribution study in female BALB/c mice
# Format: in vivo, mouse
# Measurement parameters: female, BALB/c, mouse; ip, Dose: 100 mg/kg, plasma; read-out: PK (ip, plasma/liver) Cmax, plasma
Property: Cmax; scope: individual compounds
Give your result in µM as a bare value.

CC(C)(C)[S@@+]([O-])N1Cc2cc(C(=O)NCc3ccc4c(c3)OCO4)nc(-c3cccc(-c4cccnc4)c3)c2[C@H]1CCO [drawing 329] = 33.4

Would you kindly look at the next entry?
Exam item: Item under review: CC(C)(C)[S@@+]([O-])N1Cc2cc(C(=O)NCc3ccccc3F)nc(-c3cccc(-c4cccnc4)c3)c2[C@H]1CCO [drawing 330] . Reported Cmax?
Marked response: 72.6
